Quick reference for Maximum Tolerated Dose (MTD) among some compounds
# Test system: zebrafish larvae
# protocolDetails: Toxicity test: three-day treatment of fish larvae without injection of tumor cells
# Assay type: in vivo, zebrafish (Danio rerio)
# testParameters: three-day incubation time at 34 °C, drug in buffer
valueKind: Maximum Tolerated Dose (MTD) (µM)

In [3]: df
Out[3]:
                                   compound  testvalue
0  Cc1[nH]c2ccccc2c1CCNCc1ccc(/C=C/C(=O)NO)cc1          1
1  CN1CCc2c(c3ccccc3n2Cc2ccc(C(=O)NO)cc2)C1        200
2               O=C(CCCCCCC(=O)Nc1ccccc1)NO        100

The measured values listed here are drawn from paper PMC7692187.
